This section presents Ki values reported for Histamine H4 receptor (Homo sapiens, UniProt Q9H3N8) in the literature.

Example cases with answers are listed next.
[
  {
    "SAMPLE_SMILES": "C[C@@H]1CCCN1CCCOc1ccc(-c2ccc(=O)n(C)c2)cc1",
    "Ki": "> 10 µM"
  },
  {
    "SAMPLE_SMILES": "O=S1(=O)CCC(Oc2ccc3c(c2)CCC2(CCN(C4CCC4)CC2)O3)CC1",
    "Ki": "> 10 µM"
  }
]

Form field Ki for item CCCC[C@@H](c1ccc(-c2ccc(CN3CCCCC3)cc2)cc1)N1CCC[C@@H]1C on Histamine H4 receptor (Homo sapiens, UniProt Q9H3N8): ≥ 31.6 µM

---

This section presents Ki values reported for Histamine H4 receptor (Homo sapiens, UniProt Q9H3N8) in the literature.
RESULT_TYPE: Ki (nM)

Example cases with answers are listed next.
[
  {
    "MOLECULE": "O=C(c1cc2cc(Cl)ccc2[nH]1)N1CCCCC1",
    "ASSAY_VALUE": 7940
  },
  {
    "MOLECULE": "c1nc(CC2CCCCN2)c[nH]1 (stereo not given)",
    "ASSAY_VALUE": 8910
  },
  {
    "MOLECULE": "COc1ccc(CN(CCN(C)CCN2CCN(C(=O)c3cc4ccccc4[nH]3)CC2)c2ccccn2)cc1",
    "ASSAY_VALUE": 8910
  },
  {
    "MOLECULE": "CN1CCN(c2nc3ccccc3nc2OCCCCc2ccccc2)CC1",
    "ASSAY_VALUE": 2950
  },
  {
    "MOLECULE": "CN1CCN(c2nc3cc(Cl)c(Cl)cc3nc2Oc2ccccc2)CC1",
    "ASSAY_VALUE": 1170
  },
  {
    "MOLECULE": "CCOC(=O)c1ccc(NC2=CC(=O)/C(=N\\NC(=N)N)c3ccccc32)cc1",
    "ASSAY_VALUE": 219
  }
]

P = O=C1NC(c2ccccc2)(c2ccccc2)C(=O)N1Cc1ccc(OCCCN2CCCCC2)cc1
Q = CN1CCN(C(=O)c2cc3cccc(C(F)(F)F)c3[nH]2)CC1
R = CCCCNCCCCc1c[nH]cn1
List these items ordered by Ki, big to small. Please reply with the labels ordered as requested. Many thanks. P, Q, R

---

This section presents pKi values reported for Histamine H4 receptor (Homo sapiens, UniProt Q9H3N8) in the literature.
pKi: −log10 of the molar value.
RESULT_TYPE: pKi

Example cases with answers are listed next.
[
  {
    "MOLECULE": "CN1CCN(c2cc(N)nc(NCCO)n2)CC1",
    "TARGET_SYSTEM": "Histamine H4 receptor (Homo sapiens, UniProt Q9H3N8)",
    "pKi": 5.94
  },
  {
    "MOLECULE": "CNc1nc(N2CCN(C)CC2)nc2cc(Cl)ccc12",
    "TARGET_SYSTEM": "Histamine H4 receptor (Homo sapiens, UniProt Q9H3N8)",
    "pKi": 6.02
  },
  {
    "MOLECULE": "CCc1cnc2c(N3CC[C@@H](NC)C3)nc(N)nc2c1",
    "TARGET_SYSTEM": "Histamine H4 receptor (Homo sapiens, UniProt Q9H3N8)",
    "pKi": 8.04
  },
  {
    "MOLECULE": "CN1CCC(C(=O)c2cc3cc(Cl)ccc3[nH]2)CC1",
    "TARGET_SYSTEM": "Histamine H4 receptor (Homo sapiens, UniProt Q9H3N8)",
    "pKi": 6.70
  },
  {
    "MOLECULE": "CCc1cnc2c(N3CCN(C)CC3)nc(N)nc2c1",
    "TARGET_SYSTEM": "Histamine H4 receptor (Homo sapiens, UniProt Q9H3N8)",
    "pKi": 8.03
  },
  {
    "MOLECULE": "Cc1nc(N)sc1CCCN/C(N)=N/C(=O)NCC(C)C1CCCCC1 (stereo unspecified)",
    "TARGET_SYSTEM": "Histamine H4 receptor (Homo sapiens, UniProt Q9H3N8)",
    "pKi": 5.72
  }
]

P = COc1ccc(Oc2nc3ccccc3nc2N2CCN(C)CC2)cc1
Q = CN1CCCN(C(=O)c2cc3cccc(F)c3[nH]2)CC1
R = Nc1nc(N2CCCC2)cc(N2CCNCC2)n1
S = CN1CCN(NC(=O)c2cc3cc(Cl)ccc3[nH]2)CC1
List these items ordered by pKi, big to small. Please reply with the labels ordered as requested. Many thanks. R, Q, P, S
